assay: NCI Yeast Anticancer Drug Screen. Data for the mec2-1 strain (AID 157); conditions: S. cerevisiae mec2-1 strain, at 50.0 µM, stronger effect = higher value
Compounds without any hit were thinned out: in the full panel of roughly 79,000, 15% have a hit. The source made the active and inactive calls. No stated cut-off is given here; in the data, active means growth inhibition above about 70%; inactive means the rest.
property-label: growth inhibition

>>> observed_value("CC(=O)CC(=O)c1cc(C(C)=O)c(O)c(C(C)=O)c1")
"0.75% (inactive)"
>>> observed_value("Cc1ccc(F)c2[nH]c(-c3ccccc3)cc(=O)c12")
"3.45% (inactive)"
>>> observed_value("O=C(NC1C2CC3CC(C2)CC1C3)c1ccncn1 (stereo not drawn)")
"4.75% (inactive)"
>>> observed_value("CC1=CC(C)(C)N=C2SC(=O)c3nc4ccccc4c(=O)n3N12")
"2.35% (inactive)"
>>> observed_value("Nc1ccc2c(c1)-c1ccccc1C2O (stereo not drawn)")
"-19.1% (inactive)"
>>> observed_value("CCCCCNC(=O)c1cccc(C)c1")
"-13.2% (inactive)"
>>> observed_value("O=C(Nc1ccccc1)Nc1ccc(-c2ccccc2)cc1")
"14.1% (inactive)"
>>> observed_value("C/C(=N\\N)c1ccc(Cl)cc1O")
"-34.2% (inactive)"
>>> observed_value("O=C(Cc1cccc2ccccc12)NO")
"5.05% (inactive)"
>>> observed_value("CC(C)(c1ccsc1)c1sccc1C(=O)O")
"2.95% (inactive)"
>>> observed_value("O=C(c1ccc2ccccc2c1)C(Cl)C(Cl)c1ccccc1 (stereo not drawn)")
"10.8% (inactive)"
>>> observed_value("O=c1c(C(=Nc2ccccc2)c2ccccc2)c[nH]n1-c1ccccc1")
"6.9% (inactive)"
>>> observed_value("CC1CCC(NC(=O)NCCCl)c2ccccc21 (stereo not drawn)")
"-1.3% (inactive)"

The reported numbers originate from PubChem BioAssay (NCI).
